PDE9 (Homo sapiens (Human), UniProt O76083) IC50, compiled from various sources.
Sequence (O76083 whole entry): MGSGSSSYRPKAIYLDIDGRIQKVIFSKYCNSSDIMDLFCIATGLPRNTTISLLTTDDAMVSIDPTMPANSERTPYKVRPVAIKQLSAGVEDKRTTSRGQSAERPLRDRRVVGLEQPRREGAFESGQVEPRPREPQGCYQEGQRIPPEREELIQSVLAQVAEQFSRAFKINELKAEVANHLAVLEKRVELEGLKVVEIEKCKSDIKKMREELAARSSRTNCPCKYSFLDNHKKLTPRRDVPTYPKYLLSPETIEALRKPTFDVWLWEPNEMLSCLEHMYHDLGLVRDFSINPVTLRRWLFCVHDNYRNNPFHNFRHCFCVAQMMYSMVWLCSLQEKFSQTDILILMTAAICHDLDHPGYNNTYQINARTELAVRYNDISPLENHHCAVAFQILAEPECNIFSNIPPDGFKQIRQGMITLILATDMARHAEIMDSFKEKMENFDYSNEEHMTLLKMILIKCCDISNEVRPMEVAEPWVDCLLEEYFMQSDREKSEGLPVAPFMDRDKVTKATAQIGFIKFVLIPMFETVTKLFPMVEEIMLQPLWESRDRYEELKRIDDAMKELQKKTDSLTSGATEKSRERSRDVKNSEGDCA
Quantity: IC50 (nM)

INSERT INTO assay_data (molecule, measure_unit, numeric_result) VALUES
  ('CC(O)c1cc2c(N3CCC(C)(O)CC3)c(C#N)c(=O)[nH]c2cn1 (centres unmarked)', 'nM', 37),
  ('O=c1[nH]c(SCc2nc3ccccc3o2)nc2c1cnn2C1CCSCC1', 'nM', 6),
  ('Cc1cc2[nH]c(=O)c3cnn(C4CCOCC4)c3c2cc1C(=O)N1C[C@@H](C)N(CCC(F)(F)F)C[C@@H]1C', 'nM', 4.7),
  ('COCCCN1CCN(C(=O)c2cc3c(cc2C)[nH]c(=O)c2cnn(C4CCC(F)(F)CC4)c23)C[C@@H]1C', 'nM', 10),
  ('Cc1cc2[nH]c(=O)c3cnn([C@H]4CCN(C)C4)c3c2cc1C(=O)N1CCN(c2ccc(F)c(C)n2)[C@H](C)C1', 'nM', 5.5);
